- Test system: HOP-62 NSCLC
- test_protocol: NCI-60 one-dose screen, 48 h (100 = growth as untreated, 0 = no growth, -100 = all killed)
- conditions: 10 µM
This is part of a sample that, as a whole, favours compounds with a hit. Of some 83,000 tested, about 20% had one in any assay.
// growth lookup, one value per entry
Expressed in %, but write only the number.

Here is how some compounds turned out for growth.
Request body: readout growth, system HOP-62 NSCLC, query CNc1ccc(CSc2ccc(C)cc2)cc1 . Return the value.
90.4

Request body: readout growth, system HOP-62 NSCLC, query COc1ccc([N+](=O)[O-])c(C(=O)O)c1 . Return the value.
100

Request body: readout growth, system HOP-62 NSCLC, query CCOC1(OCC)OC(c2ccccc2)=C(C#N)C(/C=C\c2ccccc2)C1(OCC)OCC (centres undefined) . Return the value.
91.5

Request body: readout growth, system HOP-62 NSCLC, query Clc1ccc(Nc2ccnc(NCCCNc3ccnc4cc(Cl)ccc34)n2)cc1 . Return the value.
19.6

Request body: readout growth, system HOP-62 NSCLC, query CO/N=C(/C(=O)NC1C(=O)N2C(C(=O)O)=C(COC(N)=O)CSC12)c1ccco1 (centres undefined) . Return the value.
112

Next:
Request body: readout growth, system HOP-62 NSCLC, query COc1cc(-c2cc(/C=C/C(=O)c3ccc(F)c(F)c3)[nH]n2)cc(OC)c1OC . Return the value.
78.7

Request body: readout growth, system HOP-62 NSCLC, query COc1cc(/C=C2\CCCC3=C2N=C2SC=NN2C3c2cc(OC)c(OC)c(OC)c2)cc(OC)c1OC (centres undefined) . Return the value.
11.8
